Each recorded value in this set is attributed to patent US10351575B2.

# targetSystem: His-tagged recombinant human TrkA (Homo sapiens (Human))
# Sequence (P04629 440-796): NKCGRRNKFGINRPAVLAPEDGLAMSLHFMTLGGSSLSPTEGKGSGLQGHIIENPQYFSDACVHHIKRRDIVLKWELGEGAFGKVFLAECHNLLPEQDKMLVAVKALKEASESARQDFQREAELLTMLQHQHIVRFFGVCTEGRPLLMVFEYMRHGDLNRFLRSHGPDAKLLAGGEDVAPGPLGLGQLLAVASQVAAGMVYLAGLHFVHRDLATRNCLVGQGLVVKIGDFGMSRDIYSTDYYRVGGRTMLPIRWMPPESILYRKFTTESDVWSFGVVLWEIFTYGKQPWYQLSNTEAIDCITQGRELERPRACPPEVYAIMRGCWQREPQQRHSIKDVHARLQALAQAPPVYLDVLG
# experimentalProtocol: TrkA LanthaScreen Eu Kinase Binding Assay
# measurementParameters: averaged IC50; TR-FRET binding, 60 min, 22° C.; read-out: TrkA Enzyme IC50
pIC50: −log10 of the molar value.
measure: pIC50

>>> print(df.to_string())
                                    compound  measure   assayresult
 0  COCc1ccc2c(c1)C(NC(=O)Nc1c(C)c(-c3cnn(C)c3)nn1-c1ccccc1)CC1(CCC1)O2 (stereo not drawn) [Example 35A]    pIC50        > 7.00
 1  COc1ccc2c(c1)CCCC2NC(=O)Nc1c(C)c(-c2cnn(C)c2)nn1-c1ccccc1 (stereo not drawn)    pIC50  6.00 to 7.00
 2  CCOc1nn(-c2ccccc2)c(NC(=O)N[C@H]2c3ccccc3C[C@@H]2OCCOC)c1C    pIC50  6.00 to 7.00
 3  Cc1c(-c2cnn(C)c2)nn(-c2ccccc2)c1NC(=O)NC1CCC(C)(C)c2ccc(Br)cc21 (stereo not drawn)    pIC50        > 7.00
 4  COCc1ccc2c(c1)[C@@H](NC(=O)Nc1c(C)c(-c3cnn(C)c3)nn1-c1ccccc1)[C@H](O)CC2(C)C (relative stereo)    pIC50        > 7.00
 5  COc1nn(-c2ccccc2)c(NC(=O)N[C@@H]2c3ccccc3C3(CC3)[C@H]2O)c1C (relative stereo)    pIC50        > 7.00
 6  Cc1c(OC[C@H]2CN(C(=O)OC(C)(C)C)CCO2)nn(-c2ccccc2)c1NC(=O)N[C@@H]1c2ccccc2C(C)(C)C[C@H]1O    pIC50        > 7.00
 7  CCC(=O)N1CCc2ccccc2C(NC(=O)Nc2c(C)c(-c3cnn(C)c3)nn2-c2ccccc2)C1 (stereo not drawn)    pIC50  6.00 to 7.00
 8  Cc1c(-c2cnn(C)c2)nn(-c2ccccc2)c1NC(=O)NC1CN(CC(F)(F)F)CCc2ccccc21 (stereo not drawn)    pIC50  6.00 to 7.00
 9  CCN1CCC(NC(=O)Nc2c(C)c(OC)nn2-c2ccccc2)c2cc(Cl)ccc21 (stereo not drawn)    pIC50        > 7.00
10  Cc1c(OC[C@H]2CN(C)CCO2)nn(-c2ccccc2)c1NC(=O)NC1c2ccccc2C2(CC2)[C@@H]1O (stereo partly drawn)    pIC50        > 7.00
11  CNC(=O)c1nn(-c2ccccc2)c(NC(=O)N[C@@H]2c3ccccc3C3(CC3)[C@H]2O)c1C    pIC50        > 7.00
12  COCc1ccc2c(c1)C(NC(=O)Nc1c(C)c(-c3cn(C)cn3)nn1-c1ccccc1)CN(CC(F)(F)F)C2C (stereo not drawn)    pIC50        > 7.00
13  COc1ncc(-c2nn(-c3ccccc3)c(NC(=O)N[C@@H]3c4ccccc4CC[C@H]3O)c2C)cn1 (relative stereo)    pIC50        > 7.00
14  Cc1c(OCC2CCN(C)CC2)nn(-c2ccccc2)c1NC(=O)N[C@@H]1c2ccccc2CC[C@H]1O (relative stereo)    pIC50        > 7.00
15  Cc1nn(-c2ccccc2)c(NC(=O)N[C@@H]2c3cc(CO)ccc3C(C)(C)C[C@H]2O)c1C    pIC50        > 7.00
16  Cc1c(-c2cnn(C)c2)nn(-c2ccccc2)c1NC(=O)NC1CCCc2ccc(Br)cc21 (stereo not drawn)    pIC50        > 7.00
17  COc1nn(-c2ccccc2)c(NC(=O)N[C@@H]2c3ccccc3C(C)(C)C[C@H]2O)c1C [Example 144]    pIC50        > 7.00
